experiment: Displacement of [3H]-3-(1-(3-chloro-6-isopropyl-8-(trifluoromethyl)imidazo[1,2-a]pyridine-2-carbonyl)piperidin-4-yl)oxazolidin-2-one from HCV genotype 1b C-terminal His-tagged NS4B (1 to 261 aa) expressed in baculovirus infected SF9 cells after overnight incubation; design: species or system Hepatitis C virus subtype 1b
pIC50: −log10 of the molar value.

| molecule | pIC50 |
| --- | --- |
| O=C(c1nn2c(C(F)(F)F)cc(C3CC3)cc2c1Cl)N1CCC2(OCC3(CC3)CO2)C(O)C1 (racemic) | 8.00 |
| O=C(c1nn2c(C(F)(F)F)cc(C3CC3)cc2c1Cl)N1CCN([C@H]2C[C@@H]3C[C@@H]3[C@@H]2O)C(=O)C1 | 8.10 |
| O=C(c1nn2c(C(F)(F)F)cc(C3CC3)cc2c1Cl)N1CCC(N2CCOC2=O)CC1 | 7.43 |
| O=C(c1nn2c(C(F)(F)F)cc(C3CC3)cc2c1Cl)N1CCN([C@H]2C[C@@H]3C[C@@H]3[C@H]2O)C(=O)C1 | 7.74 |
| O=C(c1nc2c(C(F)(F)F)cc(C3CC3)cn2c1Cl)N1CCN([C@H]2CC[C@H](O)CC2)C(=O)C1 | 7.28 |
| O=C(c1nc2c(C(F)(F)F)cc(C3CC3)cn2c1Cl)N1CCN([C@@H]2C[C@H]3C[C@H]3C2)C(=O)C1 | 7.24 |
| O=C(c1nn2c(C(F)(F)F)cc(C3CC3)cc2c1Cl)N1CCN([C@@H]2C[C@H]3C[C@H]3[C@H]2O)C(=O)C1 | 7.64 |
